test-protocol: Acylation rate constant was determined
quantity-measured: Ka (min⁻¹)

Take a look at these entries with their results.
| compound | Ka (min⁻¹) |
| --- | --- |
| C=C1C[C@H](c2ccccc2)CC(=O)O1 (stereo in doubt; 1 (S)) | 17 |
| CC(=O)C[C@@H](CC(=O)Oc1ccc(C#N)cc1)c1ccccc1 | 58 |

(A) CC(=O)C[C@H](CC(=O)Oc1ccc(C#N)cc1)c1ccccc1
(B) C=C1C[C@H](c2ccccc2)CC(=O)O1 (stereo in doubt; 1 (R))
query: Hi! Which is lower in terms of Ka, the first one A or the second one B ? Your answer should be the label of the entry you select.
result: B

====

test-protocol: kd ratio measured as the kd(fast)/kd(slow) values
Assay type: ADME
quantity-measured: Ratio

Take a look at these entries with their results.
| molecule | Ratio |
| --- | --- |
| C=C(C)C[C@@H](CC(=O)Oc1ccc([N+](=O)[O-])cc1)c1ccccc1 | 3 |
| CC(=O)CC(CC(=O)Oc1ccc([N+](=O)[O-])cc1)c1ccccc1 (stereo not drawn) | 42 |
| O=CNC(CC(=O)Oc1ccc([N+](=O)[O-])cc1)c1ccccc1 (stereo not drawn) | 92 |
| CC(=O)N[C@@H](CC(=O)Oc1ccc([N+](=O)[O-])cc1)c1ccccc1 | 785 |

(a) CCC(=O)NC(CC(=O)Oc1ccc([N+](=O)[O-])cc1)c1ccccc1 (stereo not drawn)
(b) C=C1C[C@H](c2ccccc2)CC(=O)O1 (stereo in doubt; 1 (S))
query: Hi! Which is lower in terms of Ratio, the first one a or the second one b ? Your answer should be the label of the entry you select.
result: b
(b: 59, a: 1500)

(I) N#CCC(CC(=O)Oc1ccc([N+](=O)[O-])cc1)c1ccccc1 (stereo not drawn)
(II) NC(=O)CC(CC(=O)Oc1ccc([N+](=O)[O-])cc1)c1ccccc1 (stereo not drawn)
query: // which entry has the larger Ratio value, I or II ? Your answer should be the label of the entry you select.
result: I

(I) CC(=O)OC(CC(=O)Oc1ccc([N+](=O)[O-])cc1)c1ccccc1 (stereo not drawn)
(II) O=C(CC(NC(=O)c1ccccc1)c1ccccc1)Oc1ccc([N+](=O)[O-])cc1 (stereo not drawn)
(III) O=CCC(CC(=O)Oc1ccc([N+](=O)[O-])cc1)c1ccccc1 (stereo not drawn)
query: Sort the 3 molecules by Ratio; largest first, smallest last. // format: requested-order list of labels
result: II, III, I
(II: 1200, III: 180, I: 7)

(1) COC(=O)CC(CC(=O)Oc1ccc([N+](=O)[O-])cc1)c1ccccc1 (stereo not drawn)
(2) C=C(C)C[C@H](CC(=O)Oc1ccc([N+](=O)[O-])cc1)c1ccccc1
query: Hi! Which is lower in terms of Ratio, the first one 1 or the second one 2 ? Your answer should be the label of the entry you select.
result: 2
(2: 3, 1: 49)

====

test-protocol: Deacylation rate constant(Kd fast) was determined by proflavin displacement assay
quantity-measured: Kd (s⁻¹)

| molecule | Kd, s⁻¹ |
| --- | --- |
| CC(=O)N[C@@H](CC(=O)Oc1ccc([N+](=O)[O-])cc1)c1ccccc1 | 0.0262 |
| CC(C)CC(CC(=O)Oc1ccc([N+](=O)[O-])cc1)c1ccccc1 (configuration not stated) | 0.0016 |
| NC(=O)CC(CC(=O)Oc1ccc([N+](=O)[O-])cc1)c1ccccc1 (configuration not stated) | 0.00257 |
| C=C(C)C[C@@H](CC(=O)Oc1ccc([N+](=O)[O-])cc1)c1ccccc1 | 0.00287 |
| CC(=O)CC(CC(=O)Oc1ccc([N+](=O)[O-])cc1)c1ccccc1 (configuration not stated) | 0.0025 |
| O=C(CC(NC(=O)c1ccccc1)c1ccccc1)Oc1ccc([N+](=O)[O-])cc1 (configuration not stated) | 0.5 |

(I) O=C(CCc1ccccc1)Oc1ccc([N+](=O)[O-])cc1
(II) C=C(C)CC(CC(=O)Oc1ccc([N+](=O)[O-])cc1)c1ccccc1 (configuration not stated)
(III) CC(=O)OC(CC(=O)Oc1ccc([N+](=O)[O-])cc1)c1ccccc1 (configuration not stated)
query: Rank items: key Kd, increasing. // format: requested-order list of labels
result: III, II, I
(III: 0.00112 s⁻¹, II: 0.0027 s⁻¹, I: 0.25 s⁻¹)

(P) O=C(CC(NC(=O)C(F)(F)F)c1ccccc1)Oc1ccc([N+](=O)[O-])cc1 (configuration not stated)
(Q) COC(=O)CC(CC(=O)Oc1ccc([N+](=O)[O-])cc1)c1ccccc1 (configuration not stated)
(R) N#CCC(CC(=O)Oc1ccc([N+](=O)[O-])cc1)c1ccccc1 (configuration not stated)
(S) C=C1C[C@H](c2ccccc2)CC(=O)O1 (stereo in doubt; 1 (S))
(T) CCC(=O)NC(CC(=O)Oc1ccc([N+](=O)[O-])cc1)c1ccccc1 (configuration not stated)
query: Sort the 5 molecules by Kd; largest first, smallest last. // format: requested-order list of labels
result: R, T, Q, S, P
(R: 0.15 s⁻¹, T: 0.0725 s⁻¹, Q: 0.039 s⁻¹, S: 0.00283 s⁻¹, P: 0.000105 s⁻¹)

(a) O=CNC(CC(=O)Oc1ccc([N+](=O)[O-])cc1)c1ccccc1 (configuration not stated)
(b) O=CCC(CC(=O)Oc1ccc([N+](=O)[O-])cc1)c1ccccc1 (configuration not stated)
query: // which entry has the larger Kd value, a or b ? Your answer should be the label of the entry you select.
result: a

====

test-protocol: Binding constant of the compound
quantity-measured: Ks (µM)

Take a look at these entries with their results.
| molecule | readout-value |
| --- | --- |
| C=C1C[C@H](c2ccccc2)CC(=O)O1 (stereo in doubt; 1 (R)) | 51 |
| CC(=O)C[C@@H](CC(=O)Oc1ccc(C#N)cc1)c1ccccc1 | 91 |

(A) CC(=O)C[C@H](CC(=O)Oc1ccc(C#N)cc1)c1ccccc1
(B) C=C1C[C@H](c2ccccc2)CC(=O)O1 (stereo in doubt; 1 (S))
query: // which entry has the larger Ks value, A or B ? Your answer should be the label of the entry you select.
result: A
(A: 630 µM, B: 8 µM)

====

test-protocol: Deacylation rate constant(Kd slow) was determined by proflavin displacement assay
quantity-measured: Kd (s⁻¹)

Take a look at these entries with their results.
| compound | quantity-measured | readout-value |
| --- | --- | --- |
| CCC(=O)NC(CC(=O)Oc1ccc([N+](=O)[O-])cc1)c1ccccc1 (stereo not drawn) | Kd | 4.83e-05 |
| CC(=O)OC(CC(=O)Oc1ccc([N+](=O)[O-])cc1)c1ccccc1 (stereo not drawn) | Kd | 0.00017 |
| CC(=O)CC(CC(=O)Oc1ccc([N+](=O)[O-])cc1)c1ccccc1 (stereo not drawn) | Kd | 6e-05 |
| O=C(CC(NC(=O)c1ccccc1)c1ccccc1)Oc1ccc([N+](=O)[O-])cc1 (stereo not drawn) | Kd | 0.000417 |
| CC(C)CC(CC(=O)Oc1ccc([N+](=O)[O-])cc1)c1ccccc1 (stereo not drawn) | Kd | 0.0016 |
| O=CCC(CC(=O)Oc1ccc([N+](=O)[O-])cc1)c1ccccc1 (stereo not drawn) | Kd | 8.3e-05 |
| CC(=O)N[C@@H](CC(=O)Oc1ccc([N+](=O)[O-])cc1)c1ccccc1 | Kd | 0.00033 |
| NC(=O)CC(CC(=O)Oc1ccc([N+](=O)[O-])cc1)c1ccccc1 (stereo not drawn) | Kd | 8.3e-05 |

(P) C=C1C[C@H](c2ccccc2)CC(=O)O1 (stereo in doubt; 1 (R))
(Q) O=CNC(CC(=O)Oc1ccc([N+](=O)[O-])cc1)c1ccccc1 (stereo not drawn)
query: // which entry has the larger Kd value, P or Q ? Your answer should be the label of the entry you select.
result: Q
(Q: 0.00065 s⁻¹, P: 4.83e-05 s⁻¹)

====

test-protocol: Deacylation rate constant(Kd slow) was determined by proflavin displacement assay
quantity-measured: Kd (s⁻¹)

(I) O=C1CC(c2ccccc2)CC(=O)O1
(II) O=C(CCc1ccccc1)Oc1ccc([N+](=O)[O-])cc1
query: // which entry has the larger Kd value, I or II ? Your answer should be the label of the entry you select.
result: II

(A) C=C(C)CC(CC(=O)Oc1ccc([N+](=O)[O-])cc1)c1ccccc1 (stereo not drawn)
(B) C=C(C)C[C@H](CC(=O)Oc1ccc([N+](=O)[O-])cc1)c1ccccc1
(C) C=C(C)C[C@H](CC(=O)O)c1ccccc1
(D) O=C(CC(NC(=O)C(F)(F)F)c1ccccc1)Oc1ccc([N+](=O)[O-])cc1 (stereo not drawn)
query: Sort the 4 compounds by Kd; largest first, smallest last. // format: requested-order list of labels
result: A, B, D, C
(A: 0.0027 s⁻¹, B: 0.00112 s⁻¹, D: 0.000105 s⁻¹, C: 3.83e-05 s⁻¹)
